Assay: Substrate activity at ENT1 in human BXPC-3 cells assessed as inhibition of cell growth pretreated with ENT1 inhibitor nitrobenzylthioinosine for 5 mins measured after 72 hrs by SRB assay
*1 amine or outer side, *2 acyl side, *3 side chain or, on linkers, in order; H or OH if unused. Where a SMILES comes first, the peptide text is derived from it. The star is where a group is joined. X1 = O=c1nc(N*)ccn1[C@@H]1O[C@H](CO)[C@@H](O)C1(F)F; Suc = O=C(CCC(=O)[*:2])[*:1]
Reported pIC50 by item:
Please express pIC50 as -log10 of the molar concentration.

compound	property	measured_value
CSCC[C@H](NC(=O)[C@@H](NC(=O)[C@@H]1CCCN1C(=O)[C@H](CC(C)C)NC(=O)[C@H](CCCCN)NC(=O)CCC(=O)Nc1ccn([C@@H]2O[C@H](CO)[C@@H](O)C2(F)F)c(=O)n1)C(C)C)C(=O)N[C@@H](Cc1c[nH]c2ccccc12)C(N)=O ({X1-Suc}-KLPVMW-NH2)	pIC50	6.42
CSCC[C@H](NC(=O)[C@@H](NC(=O)[C@@H]1CCCN1C(=O)[C@H](CC(C)C)NC(=O)[C@H](CCCCN)NC(=O)[C@H](Cc1c[nH]c2ccccc12)NC(=O)CCC(=O)Nc1ccn([C@@H]2O[C@H](CO)[C@@H](O)C2(F)F)c(=O)n1)C(C)C)C(N)=O ({X1-Suc}-WKLPVM-NH2)	pIC50	6.42

Turning to the following compound.
Provide only the value of recorded pIC50 for CC(C)C[C@H](NC(=O)[C@@H](NC(=O)[C@@H]1CCCN1C(=O)[C@@H](NC(=O)[C@H](Cc1c[nH]c2ccccc12)NC(=O)CCC(=O)Nc1ccn([C@@H]2O[C@H](CO)[C@@H](O)C2(F)F)c(=O)n1)C(C)C)[C@@H](C)O)C(=O)N[C@@H](CCCCN)C(N)=O ({X1-Suc}-WVPTLK-NH2) 6.42
